- ASSAYED_SYSTEM: LIMK2KD (Homo sapiens)
- Construct: The cDNA coding for LIMK2 residues 330 to 632 was PCR amplified; His6 (N, cleaved yes); made in house; host or cells: baculovirus; Sf9 for virus, TriEx insect cells for expression
- Sequence (P53671 330-632): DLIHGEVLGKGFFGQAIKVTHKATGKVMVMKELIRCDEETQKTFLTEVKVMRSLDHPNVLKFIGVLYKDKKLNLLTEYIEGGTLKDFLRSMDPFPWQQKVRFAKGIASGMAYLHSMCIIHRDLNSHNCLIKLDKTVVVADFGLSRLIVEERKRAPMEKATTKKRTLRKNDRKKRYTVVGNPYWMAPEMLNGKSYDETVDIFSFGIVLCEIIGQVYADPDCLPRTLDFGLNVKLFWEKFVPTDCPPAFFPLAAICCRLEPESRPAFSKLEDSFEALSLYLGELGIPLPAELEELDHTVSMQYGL
- ASSAY_TEXT: Differential (dynamic) scanning fluorimetry (DSF) assay, LIMK2KD
- Assay type: binding
- APPLIED_CONDITIONS: LIMK2KD, compound 10 µM, single shot
Labels assigned by TM Shift LIMK2 (K) range: 0: < -0.2 K; 1: ≥ -0.2 K and < 2 K; 2: ≥ 2 K

Asked: Which bin, given its TM Shift LIMK2 (K), does CCN1/C(=C/C(C)=O)Sc2ccc(OC)cc21 occupy?
Given back: 0

Asked: What about O=C(Nc1cccc(Nc2ncc(Br)c(NCCc3cnc[nH]3)n2)c1)N1CCCC1 ?
Given back: 2

Asked: What about COc1cc(O)c2c(c1)/C=C/C[C@H](O)[C@H](O)C(=O)/C=C\C[C@H](C)OC2=O ?
Given back: 1

Asked: What about C#Cc1cccc(Nc2ncnc3cc(OCCOC)c(OCCO)cc23)c1 ?
Given back: 1

Asked: What about C[C@@H]1COCCN1c1cc(C2(S(C)(=O)=O)CC2)nc(-c2cccc3[nH]ccc23)n1 ?
Given back: 0

Asked: What about CS(=O)(=O)c1cccc(CNc2nc(Nc3ccc4c(c3)CCC(=O)N4)ncc2C(F)(F)F)c1 ?
Given back: 1

Asked: What about Cc1ccc([N+](=O)[O-])cc1S(=O)(=O)N(C)/N=C/c1cnc2ccc(Br)cn12 ?
Given back: 2

Asked: What about O=C(NC(NC(=S)Nc1ccc(F)c([N+](=O)[O-])c1)C(Cl)(Cl)Cl)C(c1ccccc1)c1ccccc1 (centres unmarked) ?
Given back: 2

Asked: What about COc1ccc2cc(-c3nc(-c4ccc([S+](C)[O-])cc4)[nH]c3-c3ccncc3)ccc2c1 (centres unmarked) ?
Given back: 1

Asked: What about COc1ccc(C(=O)Nc2sc3c(c2C(N)=O)CCCC3)cc1OC ?
Given back: 1

Asked: What about CC(C)(C#N)c1ccc(N2C(=O)OCc3cnc4ccc(-c5cnc6ccccc6c5)cc4c32)cc1 ?
Given back: 0

Asked: What about COc1ccc(CNC(=O)Nc2ncc([N+](=O)[O-])s2)cc1 ?
Given back: 1

Asked: What about Oc1ccc(Nc2nc(-c3ccc(Cl)cc3)cs2)cc1 ?
Given back: 1

Asked: What about Cc1ccc(C(=O)Nc2cccc(C(F)(F)F)c2)cc1Nc1nc(-c2cccnc2)nc2c1cnn2C ?
Given back: 1

Asked: What about CCn1c2ccccc2c2cc(Nc3ccnc(NCCCN4CCOCC4)n3)ccc21 ?
Given back: 0

Asked: What about Nc1cccc(-c2cc3c(Oc4cccc(O)c4)ncnc3[nH]2)c1 ?
Given back: 2

Asked: What about N#Cc1c(O)c2c(-c3ccc(-c4ccccc4O)cc3)csc2[nH]c1=O ?
Given back: 2

Asked: What about Cl.Cl.NC1(c2ccc(-c3nc4ccn5c(=O)[nH]nc5c4cc3-c3ccccc3)cc2)CCC1 [MK-2206 2HCl] ?
Given back: 0

Asked: What about CCN1CCN(C(=O)Cc2ccc(Nc3ncc(F)c(Nc4ccc(C(=O)Nc5ccccc5Cl)cc4)n3)cc2)CC1 ?
Given back: 2

Asked: What about O=C1NC(=O)/C(=C/c2cccc(C(F)(F)F)c2)S1 ?
Given back: 0

Asked: What about O=C1NCCc2[nH]c(-c3ccncc3)cc21 ?
Given back: 1

Asked: What about O=C(c1cccc(Cl)c1F)N1CCN(Cc2cccc(Nc3nccs3)n2)CC1 ?
Given back: 0

Asked: What about O=C1NC(=O)/C(=C/c2ccc3c(c2)OC(F)(F)O3)S1 ?
Given back: 2

Asked: What about Cc1cnc(Nc2ccc(F)cc2Cl)nc1-c1c[nH]c(C(=O)N[C@H](CO)c2cccc(Cl)c2)c1 [VX-11E] ?
Given back: 0

Asked: What about CCN(CC)CCCC(C)Nc1nc(C)cc(Nc2ccc3nc(C)cc(N)c3c2)n1 (centres unmarked) ?
Given back: 0

Asked: What about Cc1c(C(=O)N2CCOc3ccc(-c4ccc(N)nc4)cc3C2)ccc(S(C)(=O)=O)c1F ?
Given back: 2

Asked: What about COc1cc2ncc(-c3ccccc3)nc2cc1OC ?
Given back: 0

Asked: What about Nc1ccc(-c2ccc3ncc4ccc(=O)n(-c5cccc(C(F)(F)F)c5)c4c3c2)cn1 ?
Given back: 0

Asked: What about O=C(NOCC(O)CO)c1cc(Br)c(F)c(F)c1Nc1ccc(I)cc1F (centres unmarked) ?
Given back: 2

Asked: What about CC(C)c1cnn2c(NCc3ccccc3)cc(NCCCCCCN)nc12.Cl [BS-181 HCl] ?
Given back: 1

Asked: What about NC(=O)c1cccc(-c2cc(Nc3ccc(OC(F)(F)F)cc3)ncn2)c1 ?
Given back: 1
